- Test system: HOP-92 NSCLC
- Protocol description: NCI-60 one-dose screen, 48 h (100 = growth as untreated, 0 = no growth, -100 = all killed)
- Assay conditions: 10 µM unless noted
- Procedure: Growth inhibition of the HOP-92 human Non-Small Cell Lung tumor cell line is measured as a screen for anti-cancer activity. Cells are grown in 96 well plates and exposed to the test compound for 48 hours. Compounds are tested at a single concentration, which is 10^-5 M for most compounds. The reported endpoint is percent growth (GI% or GIPRCNT), where numbers from 0 - 100% represent growth inhibition, and numbers from -100% - 0 represent cell death. […]
This is part of a sample that, as a whole, favours compounds with a hit. Of some 83,000 tested, about 20% had one in any assay.
Use 70% as the dividing line for growth, with the line itself on the 1 side and lower values as 0.

{"Molecule smiles": "Cn1cc(-c2nc(-c3cn(C)c4ncccc34)cs2)c2cc(F)ccc21", "Target or system": "HOP-92 NSCLC", "Group label": 1}
{"Molecule smiles": "Cn1c2c(Cl)c(Cl)ccc2c2c(C#N)c[nH]c(=O)c21", "Target or system": "HOP-92 NSCLC", "Group label": 1}
{"Molecule smiles": "Cc1ccc(-c2nc([P+](c3ccccc3)(c3ccccc3)c3ccccc3)c(N3C[C@H]4C[C@H](C3)c3cccc(=O)n3C4)o2)cc1", "Target or system": "HOP-92 NSCLC", "Group label": 0}
{"Molecule smiles": "CCOC(=O)N1CCN(CCCCOc2ccc(C(C)(C)CC)cc2)CC1", "Target or system": "HOP-92 NSCLC", "Group label": 1}
{"Molecule smiles": "COc1ccc(NC(=O)c2ccc3c(c2)nc(-c2cc4ccccc4[nH]c2=O)n3-c2cc(C(C)(C)C)[nH]n2)cc1", "Target or system": "HOP-92 NSCLC", "Group label": 1}
{"Molecule smiles": "COc1cc(-c2cc3ncccc3c3nc(OCCN(C)C)c4cccnc4c23)cc(OC)c1OC", "Target or system": "HOP-92 NSCLC", "Group label": 0}
{"Molecule smiles": "Clc1ccc(Cn2cc(-c3nc4ccc(Br)nc4n3Cc3ccc(Cl)cc3)c3cccnc32)cc1", "Target or system": "HOP-92 NSCLC", "Group label": 0}
{"Molecule smiles": "O=C(O)/C(=C/c1ccc(O)cc1)c1ccccc1", "Target or system": "HOP-92 NSCLC", "Group label": 1}
